The origin of these recorded values is ChEMBL document CHEMBL5442219.

# TESTED ON: Alpha-1D adrenergic receptor (Homo sapiens)
# EXPERIMENTAL PARAMETERS: Compound concentration 10 µM
# Description: PDSP Primary Binding target: ADRA1D - Compounds are tested at 10 uM concentration, plate are incubated at room temperature in the dark for 90 minutes. Reaction are stopped by vacuum filtration onto 0.3% polyethyleneimine soaked filter mats using Filtermate harvester. Scintilation cocktail is then melted onto microwave-dried filters on a hot plate and the radio activity is counted in Microbia counter.
Values of inhibition greater than or equal to 20% map to Satisfied; values below map to Not satisfied.

Ask | Check if inhibition >= 20% (inclusive). Item: Clc1cccc(COc2cncc(N3CCNCC3)n2)c1
Reply | Satisfied

Ask | Cool, now Cc1cccc([C@H](C)c2c[nH]cn2)c1C
Reply | Satisfied

---
Ask | Check if inhibition >= 20% (inclusive). Item: C[C@H](Cc1cc2c(c(C(N)=O)c1)N(CCCO)CC2)NCCOc1ccccc1OCC(F)(F)F
Reply | Satisfied

Ask | Cool, now O=C(Nc1ccc(Cl)cc1)Nc1cccc(-c2cccc(N3CCCC3)n2)c1
Reply | Not satisfied

Ask | Cool, now COc1ccc(C2(O)OC(=O)C(c3ccc4c(c3)OCO4)=C2Cc2cc(OC)c(OC)c(OC)c2)cc1 (stereo not given)
Reply | Not satisfied

Ask | Cool, now O=S1(=O)c2cccc3cccc(c23)N1CCCN1CCN(c2ccc(F)cc2)CC1
Reply | Satisfied

Ask | Cool, now CN1C2CCC1CC(OC(c1ccc(F)cc1)c1ccc(F)cc1)C2 (stereo not given)
Reply | Satisfied

Ask | Cool, now O=c1ccn([C@@H]2O[C@H](COP(=O)(O)OP(=O)(O)OP(=O)(O)O)[C@@H](O)[C@H]2O)c(=O)[nH]1
Reply | Not satisfied
